Recorded IC50 by entry
Tested on: U937 cells (human monocytic cell line)
Test: Pam2CSK4-induced TNF-α secretion inhibition in PMA-differentiated U937 cells
Format: cell-based
Conditions: U-937, U937 cells differentiated with PMA, read-out: TNF-α production inhibition grade (IC50)

Examples with their reported IC50 follow.
compound	assaySystem	IC50
C[C@H](CCC(=O)N[C@@H]1CCCC[C@@H]1S(=O)(=O)O)[C@H]1CC[C@H]2[C@@H]3CC[C@@H]4C[C@H](O)CC[C@]4(C)[C@H]3C[C@H](O)[C@]12C [NC10041]	U937 cells (human monocytic cell line)	500 to 1000 nM
C[C@H](CCC(=O)N[C@@H](CO)CS(=O)(=O)O)[C@H]1CC[C@H]2[C@@H]3CC[C@@H]4CC(=O)CC[C@]4(C)[C@H]3CC[C@]12C [NC30024]	U937 cells (human monocytic cell line)	1000 to 2000 nM
CC[C@H]1[C@@H](O)[C@@H]2[C@H](C[C@H](O)[C@]3(C)[C@@H]([C@H](C)CCC(=O)N[C@@H](Cc4ccccc4)CS(=O)(=O)O)CC[C@@H]23)[C@@]2(C)CC[C@@H](O)C[C@@H]12 [NC50014]	U937 cells (human monocytic cell line)	500 to 1000 nM
CC[C@H]1[C@@H](O)[C@@H]2[C@H](C[C@H](O)[C@]3(C)[C@@H]([C@H](C)CCC(=O)N(CCS(=O)(=O)O)Cc4ccccc4)CC[C@@H]23)[C@@]2(C)CC[C@@H](O)C[C@@H]12 [NC50005]	U937 cells (human monocytic cell line)	1000 to 2000 nM
CC(C)[C@@H](CS(=O)(=O)O)NC(=O)CC[C@@H](C)[C@H]1CC[C@H]2[C@@H]3CC[C@@H]4C[C@H](O)CC[C@]4(C)[C@H]3CC[C@]12C [NC10067]	U937 cells (human monocytic cell line)	1000 to 2000 nM

// query API: value(readout= IC50, system= U937 cells (human monocytic cell line), query= C[C@H](CCC(=O)N[C@H](CS(=O)(=O)O)c1ccccc1)[C@H]1CC[C@H]2[C@@H]3CC[C@@H]4C[C@H](O)CC[C@]4(C)[C@H]3CC[C@]12C [NC10074] )
// result < 500 nM

// query API: value(readout= IC50, system= U937 cells (human monocytic cell line), query= C[C@H](CCC(=O)N[C@@H](C)CS(=O)(=O)O)[C@H]1CC[C@H]2[C@@H]3CC[C@@H]4C[C@H](O)CC[C@]4(C)[C@H]3CC[C@]12C [NC10084] )
// result < 500 nM

// query API: value(readout= IC50, system= U937 cells (human monocytic cell line), query= CC[C@H]1[C@@H](O)[C@@H]2[C@H](CC[C@]3(C)[C@@H]([C@H](C)CCC(=O)N(CCS(=O)(=O)O)Cc4ccccc4)CC[C@@H]23)[C@@]2(C)CC[C@@H](O)C[C@@H]12 [NC40005] )
// result ≥ 2000 nM

// query API: value(readout= IC50, system= U937 cells (human monocytic cell line), query= C[C@H](CCC(=O)NC(C)(C)CS(=O)(=O)O)[C@H]1CC[C@H]2[C@@H]3CC[C@@H]4CC(=O)CC[C@]4(C)[C@H]3CC[C@]12C [NC30013] )
// result 500 to 1000 nM

// query API: value(readout= IC50, system= U937 cells (human monocytic cell line), query= CC[C@H]1[C@@H](O)[C@@H]2[C@H](CC[C@]3(C)[C@@H]([C@H](C)CCC(=O)N(CCN(C)C)CCS(=O)(=O)O)CC[C@@H]23)[C@@]2(C)CC[C@@H](O)C[C@@H]12 [NC40035] )
// result < 500 nM
